// provenance: PubChem BioAssay (NCI)

Below, each entry is listed with its recorded TGI.
Test system: MCF7 breast
EXPERIMENT NOTES: NCI tumour cell line growth inhibition, 48 h

{"MOLECULE": "ClC(Cl)(Cl)C1CCOC1n1nc2ccccc2n1 (stereo not drawn)", "TGI": "> 100 µM"}
{"MOLECULE": "COc1ccc(NC(=O)CC(=O)n2nc(C)c(N=Nc3ccc(C)c(C)c3)c2C)cc1", "TGI": "> 100 µM"}
{"MOLECULE": "O=C1NCC2(CCNCC2)N1c1ccccc1", "TGI": "> 100 µM"}

* * *

Tested on: OVCAR-5 ovarian
EXPERIMENT NOTES: NCI tumour cell line growth inhibition, 48 h

{"COMPOUND": "Cc1ccc(S(=O)(=O)N/N=C/C(Br)=C(/Br)C(=O)O)cc1", "SYSTEM NAME": "OVCAR-5 ovarian", "TGI": "> 55.5 µM"}
{"COMPOUND": "NC(N)=NC(CC(=O)O)c1ccccc1 (stereo unspecified)", "SYSTEM NAME": "OVCAR-5 ovarian", "TGI": "> 100 µM"}
{"COMPOUND": "CC(NC1=CC(=O)c2ncccc2C1=O)C(O)c1ccccc1 (stereo unspecified)", "SYSTEM NAME": "OVCAR-5 ovarian", "TGI": "29.3 µM"}
{"COMPOUND": "COc1c(OC(C)=O)ccc(/C=C2\\N=C(C)OC2=O)c1[N+](=O)[O-]", "SYSTEM NAME": "OVCAR-5 ovarian", "TGI": "> 100 µM"}
{"COMPOUND": "O=C1C2=C(c3ccccc31)C(c1cccc(Cl)c1)NC(=S)N2 (stereo unspecified)", "SYSTEM NAME": "OVCAR-5 ovarian", "TGI": "> 100 µM"}
{"COMPOUND": "CN1CCN(c2nc3ccccc3nc2C(=O)c2ccc(Cl)cc2)CC1", "SYSTEM NAME": "OVCAR-5 ovarian", "TGI": "> 100 µM"}
{"COMPOUND": "O=C(O)CCC(NC(=O)c1ccc(Nc2nc3ccccc3nc2C(=O)O)cc1)C(=O)O (stereo unspecified)", "SYSTEM NAME": "OVCAR-5 ovarian", "TGI": "> 100 µM"}
{"COMPOUND": "S=c1[nH]nc(COc2ccc(Cl)cc2)o1", "SYSTEM NAME": "OVCAR-5 ovarian", "TGI": "> 100 µM"}
{"COMPOUND": "O=C(O)C(Cc1ccc2c(c1)CCC2)(Cc1ccc2c(c1)CCC2)C(=O)O", "SYSTEM NAME": "OVCAR-5 ovarian", "TGI": "> 100 µM"}
{"COMPOUND": "CCN(CC)CCNC(=O)c1ccc([N+](=O)[O-])cc1OC", "SYSTEM NAME": "OVCAR-5 ovarian", "TGI": "> 100 µM"}
{"COMPOUND": "COc1c(Cl)ccc(Cl)c1C(=O)NNC(=O)c1c(Cl)c(Cl)c(Cl)c(Cl)c1-c1nc2ccc(C(=O)c3ccccc3)cc2[nH]1", "SYSTEM NAME": "OVCAR-5 ovarian", "TGI": "> 100 µM"}

* * *

Below, each entry is listed with its recorded TGI.
Tested on: NCI/ADR-RES ovarian
EXPERIMENT NOTES: NCI tumour cell line growth inhibition, 48 h
READOUT: TGI

{"SUBSTANCE SMILES": "O=C(c1ccc(Cl)cc1Cl)N(Cc1cccnc1)C(=S)N(Cc1cccnc1)C(=O)c1ccc(Cl)cc1Cl", "OBSERVED RESULT": "76 µM"}
{"SUBSTANCE SMILES": "Cc1ccc(-c2sc(-c3ccc(C)cc3)c3c2C2CCC3C2)cc1", "OBSERVED RESULT": "> 50 µM"}
{"SUBSTANCE SMILES": "CC1(C)N=C(N)N=C(N)N1c1cccc(/C=C/C=C/c2cccc([N+](=O)[O-])c2)c1", "OBSERVED RESULT": "> 100 µM"}
{"SUBSTANCE SMILES": "COc1cc[nH]c1/C=C1\\C(=O)Nc2ccc(F)c(C#C[C@@H](O)[C@@H](N)[C@@H](C)O)c21", "OBSERVED RESULT": "25 µM"}
{"SUBSTANCE SMILES": "COc1ccc2c(c1)c1nn(CCN(C)C)c3ccc4c(=O)n(CCN(C)C)c(=O)n2c4c13", "OBSERVED RESULT": "0.277 µM"}
{"SUBSTANCE SMILES": "CCOC(=O)C1(Cc2ccccc2)Cc2cc3c(cc2C1)CCC3", "OBSERVED RESULT": "> 100 µM"}
{"SUBSTANCE SMILES": "O=C(Nc1n[nH]c2nc(-c3ccco3)c(Br)cc12)C1CC1", "OBSERVED RESULT": "> 25 µM"}
{"SUBSTANCE SMILES": "COc1c(Cl)ccc(Cl)c1C(=O)NNC(=O)c1c(Cl)c(Cl)c(Cl)c(Cl)c1-c1nc2ccc(C(=O)c3ccccc3)cc2[nH]1", "OBSERVED RESULT": "> 100 µM"}
{"SUBSTANCE SMILES": "Clc1ccccc1/C=C/c1nsc(/C=C/c2ccccc2Cl)n1", "OBSERVED RESULT": "> 100 µM"}
